Listed below: pIC50 values for each entry.
# target_or_system: UniProtKB P22303
# Sequence (P22303 whole entry): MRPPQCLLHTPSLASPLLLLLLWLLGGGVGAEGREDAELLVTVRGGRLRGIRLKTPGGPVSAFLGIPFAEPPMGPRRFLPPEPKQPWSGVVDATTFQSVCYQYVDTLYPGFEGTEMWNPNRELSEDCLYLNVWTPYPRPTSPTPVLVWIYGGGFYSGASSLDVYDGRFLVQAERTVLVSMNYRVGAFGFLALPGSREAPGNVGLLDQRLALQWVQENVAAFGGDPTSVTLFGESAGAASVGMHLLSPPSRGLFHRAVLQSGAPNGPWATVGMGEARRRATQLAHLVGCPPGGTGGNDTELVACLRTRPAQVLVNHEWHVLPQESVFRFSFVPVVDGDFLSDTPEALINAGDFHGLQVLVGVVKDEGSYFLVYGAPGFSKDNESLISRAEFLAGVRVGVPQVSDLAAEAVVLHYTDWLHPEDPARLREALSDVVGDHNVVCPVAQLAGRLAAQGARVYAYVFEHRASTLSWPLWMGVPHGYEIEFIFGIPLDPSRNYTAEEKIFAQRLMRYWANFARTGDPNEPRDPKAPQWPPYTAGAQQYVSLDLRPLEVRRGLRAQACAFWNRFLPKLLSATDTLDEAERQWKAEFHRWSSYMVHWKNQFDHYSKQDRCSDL
The value called pIC50 is obtained by taking minus log10 of the concentration in mol/L.

Some entries whose results are on file:
{"columns": ["substance_smiles", "pIC50"],
 "data": [
  ["CN(Cc1ccccc1)Cc1ccc(C(=O)c2ccc(NC(=O)CCCCN3CCCCC3)cc2)cc1", 6.66],
  ["CCN(CC)CCCCCCCOc1ccc(C(=O)c2ccc(CN(C)Cc3ccccc3)cc2)cc1", 6.09],
  ["CCN(CC)CCCCCCOc1ccc(C(=O)c2ccc(CN(C)Cc3ccccc3)cc2)cc1", 6.59],
  ["CN(Cc1ccccc1)Cc1ccc(C(=O)c2ccc(OCCCCCCCN3CCCCC3)cc2)cc1", 6.96],
  ["CN(Cc1ccccc1)Cc1ccc(C(=O)c2ccc(OCCCN3CCC(n4c(=O)[nH]c5ccccc54)CC3)cc2)cc1", 7.17]
]}

Test item `CN(Cc1ccccc1)Cc1ccc(C(=O)c2ccc(OCCCCCN3CCCCC3)cc2)cc1` ; UniProtKB P22303; reported pIC50 was 6.84

Let me check: `CCN(CC)CCCOc1ccc(C(=O)c2ccc(CN(C)Cc3ccccc3)cc2)cc1` , system UniProtKB P22303, measured pIC50 is 7.60

So the reported pIC50 for `CCN(CC)CCc1ccc(Oc2ccc(C(=O)c3ccc(CN(C)Cc4ccccc4)cc3)cc2)cc1` , on UniProtKB P22303, turned out to be 6.89

Here `CCN(CC)CCCCCOc1ccc(C(=O)c2ccc(CN(C)Cc3ccccc3)cc2)cc1` was tested on UniProtKB P22303, and its pIC50 came to 6.84
